Each recorded value in this set is attributed to patent US20110212084A1.

SYSTEM TESTED: cynomolgus IgE (recombinant chimaeric D12 variable region / cynomolgus IgE constant region) (cynomolgus monkey (constant region))
Sequence (heavy, as listed by the source limits assumed, chain 1 of 2): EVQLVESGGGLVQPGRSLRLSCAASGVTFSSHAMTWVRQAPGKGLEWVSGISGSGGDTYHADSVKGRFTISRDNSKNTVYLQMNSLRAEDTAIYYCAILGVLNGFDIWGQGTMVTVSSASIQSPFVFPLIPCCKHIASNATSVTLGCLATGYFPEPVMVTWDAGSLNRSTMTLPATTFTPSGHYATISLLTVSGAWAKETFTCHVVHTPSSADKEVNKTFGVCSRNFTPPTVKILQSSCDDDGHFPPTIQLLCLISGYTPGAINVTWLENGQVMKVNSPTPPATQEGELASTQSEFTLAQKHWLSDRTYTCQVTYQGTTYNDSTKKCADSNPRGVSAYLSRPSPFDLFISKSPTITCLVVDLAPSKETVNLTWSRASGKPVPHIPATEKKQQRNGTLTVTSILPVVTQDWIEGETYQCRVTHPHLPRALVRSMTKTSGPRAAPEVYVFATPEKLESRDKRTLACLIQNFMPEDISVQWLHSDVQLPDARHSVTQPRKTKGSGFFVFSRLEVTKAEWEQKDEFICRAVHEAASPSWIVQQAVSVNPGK
Sequence (light, as listed by the source limits assumed, chain 2 of 2): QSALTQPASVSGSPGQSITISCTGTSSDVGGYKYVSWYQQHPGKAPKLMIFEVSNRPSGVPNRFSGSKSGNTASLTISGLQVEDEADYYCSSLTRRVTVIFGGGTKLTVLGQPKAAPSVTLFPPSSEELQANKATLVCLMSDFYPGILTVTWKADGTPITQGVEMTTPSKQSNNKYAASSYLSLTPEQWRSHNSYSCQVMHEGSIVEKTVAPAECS
TEST DETAILS: cell-based or functional assay
MEASURE NAME: RBL-ER51 calcium signalling IC50 (nM) Geomean, cynomolgus IgE 100 ng/ml

Here's what some known entries look like.
Antibody 34 (IgG) (antibody, V domains shown) VH: EVQLLESGGGLVQPGGSLRLSCAAPGFTLSSYAMSWVRQAPGKGLEWVSAISGGSGGRTYYADSVKGRFTISRDNSKNTLYLQMNSLRAEDTAVYYCARHIAVAGTRGFDYWGRGTLVTVSS VL: SYVLTQPPSVSASPGQTASITCSGDKLGDTYASWYRQRSGQSPVLVIYQDDKRPPGIPERFSGSNSGNTATLTIRGTHTMDEADYYCLAWDTRTSGAVFGGGTKLSVL | 22 nM
Antibody 15 (IgG) (antibody, V domains shown) VH: EVQLLESGGGLVQPGGSLRLSCAAPGFTFSSYAMSWVRQAPGKGLEWVSAISGGSGGRTYYADSVKGRFTISRDNSKNTLYLQMNSLRAEDTAVYYCARHIAVAGTRGFDYWGRGTLVTVSS VL: SYVLTQPPSVSVSPGQTASITCSGDKLGDTYASWYRQRSGQSPVLVIYQDDRRPSGIPERFSGSNSGNTATLTISGTHTMDEADYYCLAWDTRTSGAVFGGGTKLTVL | 5.4 nM
Antibody 33 (IgG) (antibody, V domains shown) VH: EVQLLESGGGLVQPGGSLSLSCAAPGFTFSSYAMSWVRQAPGKGLEWVSAISGGSGGRTYYADSVKGRFTISKDNSKNTLYLQMNSLRAEDTAVYYCARHIAVAGTRGFDYWGRGTLVTVSS VL: SYVLTQPPSVSVSPGQTASITCSGDKLGDTYASWYRQRSGLSPALVIYQDDKRPSGIPERFSGSNSGNTATLTISGTHTMDEADYYCLAWDTRTSGAVFGGGTKLTVL | 5.1 nM

Could you now consider this next binder?
*Q* Look up RBL-ER51 calcium signalling IC50 (nM) Geomean, cynomolgus IgE 100 ng/ml for this binder: Antibody 9 (IgG) (antibody, V domains shown) VH: EVQLLESGGGLVQPGGSLRLSCAASGFTFSSYAMSWVRQAPGKGLEWVSAISGGSGGRTYYADSVKGRFTISRDNSKNTLYLQMNSLRAEDTAVYYCARHIAVAGTRGFDYWGRGTLVTVSS VL: SFVLSQPPSVSVSPGQTASITCSGDKLGDTYASWYRQRSGQSPVLVIYQDDKRPSGIPERFSGSNSGNTATLTISGTHTMDEADYYCLAWDTRTSGAVFGGGTKLTVL
*A* 4.5 nM
